readout: logP
I only need the number, thanks.

# smiles string, readout value
measured = [
    ("CN(C)C(=O)Nc1ccc(Oc2nnn(Cc3ccccc3)n2)cc1", 2.25),
    ("C=CCn1nnnc1Oc1ccc(NC(=O)N(C)C)cc1", 1),
]

The molecule "CCn1nnc(Oc2ccc(NC(=O)N(C)C)cc2Cl)n1" showed logP equal to 1.7

The molecule "CC(C)n1nnc(Oc2ccc(NC(=O)N(C)C)cc2)n1" showed logP equal to 1.45

The molecule "C#CCn1nnnc1Oc1ccc(NC(=O)N(C)C)cc1" showed logP equal to 1

* * *

logP overview
I only need the number, thanks.

Example entries and their recorded answers appear below.
# smiles string, logP
records = [
    ("CCCCCCCCn1nnc(Oc2ccc(NC(=O)N(C)C)cc2)n1", 4.4),
    ("CN(C)C(=O)Nc1ccc(Oc2nnnn2Cc2ccccc2)cc1", 1.7),
]

The molecule "CN(C)C(=O)Nc1ccc(Oc2nnnn2C(C)(C)C)cc1" showed logP equal to 1.65

The molecule "CN(C)C(=O)Nc1ccc(Oc2nnnn2C(C)(C)C)c(Cl)c1" showed logP equal to 2.25

The molecule "C#CCn1nnc(Oc2ccc(NC(=O)N(C)C)cc2)n1" showed logP equal to 1.65

The molecule "C=CCn1nnc(Oc2ccc(NC(=O)N(C)C)cc2)n1" showed logP equal to 1.65

* * *

# test summary: method code SF-AS, from DOI: 10.1021/jf00085a044
Each record is given label 1 if its reported logP is strictly below 2. Records at or above 2 are given label 0.

# smiles string, label
records = [
    ("CN(C)C(=O)Nc1ccc(Oc2nnn(CCC#N)n2)cc1", "label 1"),
    ("CCn1nnc(Oc2ccc(NC(=O)N(C)C)cc2)n1", "label 1"),
    ("CCn1nnnc1Oc1ccc(NC(=O)N(C)C)cc1Cl", "label 1"),
    ("CN(C)C(=O)Nc1ccc(Oc2nnn(C3CCCCC3)n2)cc1", "label 0"),
]

Answer whether the compound "CN(C)C(=O)Nc1ccc(Oc2nnn(C)n2)cc1" has logP strictly less than 2 label 1

Answer whether the compound "CN(C)C(=O)Nc1ccc(Oc2nnnn2C2CCCCC2)cc1" has logP strictly less than 2 label 0

Answer whether the compound "CCCCCCCCn1nnnc1Oc1ccc(NC(=O)N(C)C)cc1" has logP strictly less than 2 label 0

Answer whether the compound "CN(C)C(=O)Nc1ccc(Oc2nnn(C(C)(C)C)n2)cc1" has logP strictly less than 2 label 0

Answer whether the compound "CCOC(=O)Cn1nnnc1Oc1ccc(NC(=O)N(C)C)cc1" has logP strictly less than 2 label 1
